Hello, the source for this data is patent US4248883A, in case you need it.

System: Goldblatt two-kidney renal hypertensive rats
Measurement Notes: Test 1: antihypertensive activity, oral, tail-plethysmographic blood pressure in Goldblatt two-kidney renal hypertensive rats
Type: in vivo, rat (male STD Wistar strain)
Condition: Rattus norvegicus; oral, 0.1 millimole/kg, 7 hours after administration, % of initial blood pressure; read-out: Change in blood pressure, 7 hours after administration (%)
Readout Type: change in vivo at 100 µmol/kg (%)

[[record]]
smiles_notation = "CCOC(=O)[C@H](CCSC)NC(=O)[C@@H]1CCCN1C(=O)[C@H](C)CSC(C)=O"
reported_result = -13

[[record]]
smiles_notation = "CC(=O)SC[C@@H](C)C(=O)N1CCC[C@H]1C(=O)N[C@@H](Cc1ccccc1)C(=O)O"
reported_result = -16

[[record]]
smiles_notation = "CCSSC[C@@H](C)C(=O)N1CCC[C@H]1C(=O)N[C@@H](Cc1ccccc1)C(=O)O"
reported_result = -19

[[record]]
smiles_notation = "C[C@H](CSC(=O)c1ccccc1)C(=O)N1CCC[C@H]1C(=O)N[C@@H](Cc1ccccc1)C(=O)O"
reported_result = -15

[[record]]
smiles_notation = "CCOC(=O)[C@H](Cc1ccc(O)cc1)NC(=O)[C@@H]1CCCN1C(=O)[C@H](C)CSC(C)=O"
reported_result = -14

[[record]]
smiles_notation = "CCC(=O)SC[C@@H](C)C(=O)N1CCC[C@H]1C(=O)N[C@@H](Cc1ccccc1)C(=O)O"
reported_result = -17

[[record]]
smiles_notation = "C[C@H](CSC(=O)C(C)(C)C)C(=O)N1CCC[C@H]1C(=O)N[C@@H](Cc1ccccc1)C(=O)O"
reported_result = -18

[[record]]
smiles_notation = "CC(C)C(=O)SC[C@@H](C)C(=O)N1CCC[C@H]1C(=O)N[C@@H](Cc1ccccc1)C(=O)O"
reported_result = -14


###

Measurement Notes: in vivo
Condition: mouse, in vivo, iv
Readout Type: LD50

[[record]]
compound = "CC(=O)SC[C@@H](C)C(=O)N1CCC[C@H]1C(=O)N[C@@H](Cc1ccccc1)C(=O)O [A]"
readout_type = "LD50"
reported_result = "> 1000 mg/kg"

[[record]]
compound = "CCC(=O)SC[C@@H](C)C(=O)N1CCC[C@H]1C(=O)N[C@@H](Cc1ccccc1)C(=O)O [B]"
readout_type = "LD50"
reported_result = "> 1000 mg/kg"


###

Attribute: Peak time (time at which the maximum hypotensive effect was observed)
Test system: Goldblatt two-kidney renal hypertensive rats
Measurement Notes: Test 1: antihypertensive activity, oral, tail-plethysmographic blood pressure in Goldblatt two-kidney renal hypertensive rats
Assay type: in vivo, rat (male STD Wistar strain)
Condition: oral, 0.1 millimole/kg, renal hypertensive rats
Readout Type: Peak time (time at which the maximum hypotensive effect was observed) (h)

[[record]]
compound = "CC(=O)SC[C@@H](C)C(=O)N1CCC[C@H]1C(=O)N[C@@H](Cc1ccccc1)C(=O)O [A]"
target_entity = "Goldblatt two-kidney renal hypertensive rats"
units_text = "h"
reported_result = 5

[[record]]
compound = "C[C@H](CSC(=O)C(C)(C)C)C(=O)N1CCC[C@H]1C(=O)N[C@@H](Cc1ccccc1)C(=O)O [C]"
target_entity = "Goldblatt two-kidney renal hypertensive rats"
units_text = "h"
reported_result = 5

[[record]]
compound = "CCC(=O)SC[C@@H](C)C(=O)N1CCC[C@H]1C(=O)N[C@@H](Cc1ccccc1)C(=O)O [B]"
target_entity = "Goldblatt two-kidney renal hypertensive rats"
units_text = "h"
reported_result = 5

[[record]]
compound = "COC(=O)[C@H](Cc1ccc(O)cc1)NC(=O)[C@@H]1CCCN1C(=O)[C@H](C)CSC(C)=O [G]"
target_entity = "Goldblatt two-kidney renal hypertensive rats"
units_text = "h"
reported_result = 5

[[record]]
compound = "CCSSC[C@@H](C)C(=O)N1CCC[C@H]1C(=O)N[C@@H](Cc1ccccc1)C(=O)O [E]"
target_entity = "Goldblatt two-kidney renal hypertensive rats"
units_text = "h"
reported_result = 7

[[record]]
compound = "CCOC(=O)[C@H](CCSC)NC(=O)[C@@H]1CCCN1C(=O)[C@H](C)CSC(C)=O [J]"
target_entity = "Goldblatt two-kidney renal hypertensive rats"
units_text = "h"
reported_result = 5

[[record]]
compound = "C[C@H](CS)C(=O)N1CCC[C@H]1C(N)=O [Compound 2, reference compound]"
target_entity = "Goldblatt two-kidney renal hypertensive rats"
units_text = "h"
reported_result = 2

[[record]]
compound = "CCOC(=O)[C@H](Cc1ccc(O)cc1)NC(=O)[C@@H]1CCCN1C(=O)[C@H](C)CSC(C)=O [H]"
target_entity = "Goldblatt two-kidney renal hypertensive rats"
units_text = "h"
reported_result = 5

